Hey, just so you know, these numbers are from PubChem BioAssay (NCI).

# System: PC-3 prostate
# experiment: NCI-60 one-dose screen, 48 h
# setup.conditions: 10 µM unless noted
Compounds without any hit were thinned out: in the full panel of roughly 83,000, 20% have a hit. Activity calls are given as the source filed them. How the source made its calls: active means growth percent below 10; inactive means the rest.
Outcomes: yes (1) (active), no (0) (inactive)

smiles.repr	target.desc	class
COC(=O)c1cc(-c2ccc(OC)cc2)[nH]c1N/N=C/c1c(Cl)cccc1Cl	PC-3 prostate	no (0)
COc1cnc2c(c1)C(=O)c1c-2n(CCCNCCO)c(=O)c2ccncc12	PC-3 prostate	yes (1)
O=C(/C=C/c1ccc(Cl)cc1)c1cccc(Nc2nc(Nc3ccccc3)nc(Nc3ccccc3)n2)c1	PC-3 prostate	no (0)
O=C(Nn1c2c(sc1=NCc1ccccc1)C(=O)c1ccccc1C2=O)c1cc2ccc1CCc1ccc(cc1)CC2	PC-3 prostate	no (0)
O=C1Nc2ccc(I)cc2C1=O	PC-3 prostate	no (0)

---

# Tested on: SF-295 CNS
# experiment: NCI-60 one-dose screen, 48 h
# setup.conditions: 10 µM unless noted
This is part of a sample that, as a whole, favours compounds with a hit. Of some 83,000 tested, about 20% had one in any assay. Active and inactive are the calls of the source. Rule for the calls: active = growth percent below 10; inactive = the rest.
Possible outcomes: True = active, False = inactive

compound	class
O=C(Cn1cc(CN2CCCCCC2)nn1)Nc1ccc2c(ccn2Cc2ccccc2)c1	False
COc1cc(CNS(=O)(=O)c2ccc(C)cc2)ccc1OCc1cn(-c2ccc(Br)cc2)nn1	False
CC(C)N1CN2C(=S)NC3C2N(C1)C(=S)N3C (stereo unspecified)	False
COCCNC(=O)c1ccc(-c2nc3ccc4[nH]ncc4c3c3c2CCCC3)cc1	False
O=S(=O)(NCCNc1nccc(-c2c(-c3cccc(F)c3)nc3occn23)n1)c1ccc(Br)cc1	False
O=C(Cn1c(=O)sc2ccccc21)NNS(=O)(=O)c1ccccc1[N+](=O)[O-]	False
CN1CCN(C(=O)OCc2ccc3c(Cl)cc(Cl)c(O)c3n2)CC1	False
Cc1ccccc1/C=C1\CN(C(=O)OC(C)(C)C)C/C(=C\c2ccccc2C)C1=O	False
Cc1cc(=O)[nH]c2c(C#N)cnn12	False
CCn1c(SCC(=O)c2ccc(Br)cc2)nnc1-c1ccncc1	False
CCOc1nc(-c2ccccc2)cc2c(O)c(C(=O)NN)[nH]c(=O)c12	False
CN(C)CCCC1(c2ccc(F)cc2)OCc2cc(-c3cccc4[nH]ccc34)ccc21 (stereo unspecified)	False
COc1ccc2c(c1)[n+]([O-])c(C(=O)/C=C/C=C(\Cl)c1cc(OC)c(OC)c(OC)c1)c(C)[n+]2[O-]	False
CCOC(=O)c1cc2c(=O)oc3ccccc3c2oc1=O	False
Cc1nnc(NC(=O)c2nc(S(=O)(=O)Cc3ccc(F)cc3)ncc2Cl)s1	False
O=C(Nc1nn(-c2ccc(Cl)cc2Cl)nc1-c1ccccc1)c1ccccc1	False
C[C@@H]1CCC[C@H]1CC(N)C(=O)O (stereo partly specified)	False
Cc1ccc2c(n1)C(=O)c1[nH]c3ccccc3c1C2=O	True
O=C(Nn1c2c(sc1=NCc1ccccc1)C(=O)c1ccccc1C2=O)c1cc2ccc1CCc1ccc(cc1)CC2	False
COc1cc(-c2csc(NC(=O)c3cc(-n4cnc(C)c4)cc(C(F)(F)F)c3)n2)cc(OC)c1OC	False
CCN(CC)CCSc1nc(-c2ccccc2)c(C#N)c(=O)[nH]1	False

---

# Test system: SN12C renal
# experiment: NCI-60 one-dose screen, 48 h (100 = growth as untreated, 0 = no growth, -100 = all killed)
# setup.conditions: 10 µM unless noted
The panel holds about 83,000 compounds, 20% with a hit somewhere; the sample as a whole holds those more often.
Each entry below carries its reported growth.
quantity.measured: growth (%)

compound	target.desc	quantity.measured	experimental.value
CCN1C(=O)N(CC)C2C1NN=c1s/c(=C\c3ccc(Cl)cc3Cl)c(=O)n12 (stereo not drawn)	SN12C renal	growth	21.5
N#C/C(=C\c1ccc2ccccc2c1)c1cc2ccccc2[nH]1	SN12C renal	growth	49.8
COC(=O)[C@H]1CCCN1C[C@@H](O)CN1C(=O)/C(=C\c2cc(OC)c(OC)c(OC)c2)c2ccccc21	SN12C renal	growth	98.2
NC(=O)CCC(C(=O)O)N1C(=O)c2ccc(O)cc2C1=O (stereo not drawn)	SN12C renal	growth	108
Cc1nc(-c2ccccc2)cc2c(O)c(C(=O)NN)[nH]c(=O)c12	SN12C renal	growth	90.9
CCN(CC)c1nc(SCc2ccccc2Cl)ncc1C	SN12C renal	growth	96.7
O=C(NCCCCNC(=O)OCc1ccc2c(Cl)cc(Cl)c(O)c2n1)OCc1ccc2c(Cl)cc(Cl)c(O)c2n1	SN12C renal	growth	28.1
O=S(=O)(Nc1cc(Br)c(O)c2ccccc12)c1ccc(F)cc1	SN12C renal	growth	49.3
O=C(Nc1ncc(Cc2ccc(Cl)c(C(F)(F)F)c2)s1)c1ccc2nnsc2c1	SN12C renal	growth	58.2
C=CCc1c2c(c(OC)c3ccoc13)C(=O)/C(=C/c1ccccc1OC)O2	SN12C renal	growth	62.1
OCc1cccc(-c2ccc3ncc(-c4nc(NC5CC5)ncc4F)n3c2)c1	SN12C renal	growth	-15.4
C=C1C(=O)O[C@H]2[C@H]1CC/C(COC(=O)CSCCSCC(=O)OC/C1=C/CC[C@@]3(C)O[C@H]3[C@H]3OC(=O)C(=C)[C@@H]3CC1)=C\CC[C@@]1(C)O[C@@H]21	SN12C renal	growth	-10.4
O=C(c1ccccc1)C1C(=O)N2C(=S)N(c3ccccc3)C(=O)C2C1c1ccc(Cl)cc1 (stereo not drawn)	SN12C renal	growth	91.7
COC1=CC(c2ccc[nH]2)=N/C1=C\c1[nH]c(C)c(C(=O)OCc2ccccc2)c1C	SN12C renal	growth	-29.4
CCCC(O)Cn1ncc(C(=O)OCC)c1NC(=O)NCc1ccccc1F (stereo not drawn)	SN12C renal	growth	96.8
O=C1CNC(c2ccccc2)C(c2ccccc2)N1 (stereo not drawn)	SN12C renal	growth	99.8
COC(C(=O)[C@@H](O)[C@@H](C)O)[C@@H]1Cc2cc3cc(O[C@H]4C[C@@H](O[C@H]5C[C@@H](O)[C@H](O)C(C)O5)[C@H](O)C(C)O4)c(C)c(O)c3c(O)c2C(=O)[C@H]1O[C@H]1C[C@@H](O[C@H]2C[C@@H](O[C@H]3C[C@@H](O)[C@H](OC)C(C)O3)[C@@H](O)C(C)O2)[C@H](O)C(C)O1 (stereo partly drawn)	SN12C renal	growth	15.9
O=Cc1ccc([N+](=O)[O-])s1	SN12C renal	growth	84.1

---

# Test system: TK-10 renal
# experiment: NCI-60 one-dose screen, 48 h
# setup.conditions: 10 µM unless noted
About 83,000 compounds went through this panel and 20% of them were active in at least one assay; those are over-represented in the sample as a whole. Active and inactive are the calls of the source. Rule for the calls: active = growth percent below 10; inactive = the rest.
Possible outcomes: active, inactive

smiles.repr	target.desc	class
C/C(=N\NC(=O)c1ccccc1O)c1cccc(/C(C)=N/NC(=O)c2ccccc2O)n1	TK-10 renal	inactive
Brc1ccc(-n2cc(-c3nn[nH]n3)c(-c3cccs3)n2)cc1	TK-10 renal	inactive
O=Nc1c(-c2c(O)[nH]c3ncccc23)[nH]c2ccccc12	TK-10 renal	inactive
CN1CCN(c2ccc(NC(=O)c3cncnc3Nc3ccc(OCc4ccccn4)c(Cl)c3)cc2)CC1	TK-10 renal	inactive
Clc1ccc(Sc2cnc(-c3ccccc3)o2)cc1	TK-10 renal	inactive
Cc1nc2sc(C(=O)Nc3cccc(Cl)c3C)c(N)c2cc1C(=O)c1ccccc1	TK-10 renal	inactive
COc1ccc(-c2nc3c(c(-c4ccccc4)nn3-c3ccccc3)c(-c3ccc(N4CCN(C)CC4)cc3)c2C#N)cc1	TK-10 renal	inactive
CC(=O)[C@@H]1CCC=C2CC[C@]3(C)[C@@H](CC[C@@H]4[C@@]5(C)CCCNC(C)(C)[C@@H]5CC[C@]43C)[C@H]21	TK-10 renal	active
S=C1CCSC(=S)N1CCCN1C(=S)CCSC1=S	TK-10 renal	inactive

---

# System: SN12C renal
# experiment: NCI-60 one-dose screen, 48 h (100 = growth as untreated, 0 = no growth, -100 = all killed)
# setup.conditions: 10 µM unless noted
The panel holds about 83,000 compounds, 20% with a hit somewhere; the sample as a whole holds those more often. Active and inactive are the calls of the source. Rule for the calls: active = growth percent below 10; inactive = the rest.
Listing of entries alongside the reported growth.
quantity.measured: growth

molecule	experimental.value
CCN(CC)C(=S)SC(SC(=S)N(CC)CC)C(=O)c1nnn(-c2ccc([N+](=O)[O-])cc2)c1C	96.4% (inactive)
COc1ccc(-c2nc3c(c(-c4ccccc4)nn3-c3ccccc3)c(-c3ccc(N4CCOCC4)cc3)c2C#N)cc1	97.9% (inactive)
O=C1/C(=C/c2ccccc2Br)COc2ccc(O)c(O)c21	-67.6% (active)
CCCCNC(=O)Oc1ccc(/C(=C(/CC)Cc2ccccc2)c2ccc(OCCN3CCCCCC3)cc2)cc1	25.8% (inactive)
Fc1ccc2[nH]cc(-c3nonc3-c3c[nH]c4ccc(Br)cc34)c2c1	47.3% (inactive)
COc1ccccc1Nc1nc2c(s1)C1=CC[C@H]3[C@@H]4CC[C@H]([C@H](C)CCCC(C)C)[C@@]4(C)CC[C@@H]3[C@@]1(C)CC2	99.6% (inactive)
O=Nc1c(-c2c(O)[nH]c3ncccc23)[nH]c2ccccc12	72.8% (inactive)
CCOC(=O)c1[nH]c(=O)c2c(C)nc(-c3ccccc3)cc2c1O	88.8% (inactive)
O=C1/C(=C/c2cccs2)SC(=S)N1CCCN1CCOCC1	83.3% (inactive)
C/C(Nc1ccc(Cl)c(Cl)c1)=C1\CCOC1=O	88.9% (inactive)
CN(C)CCCn1c2c(c3ncccc3c1=O)C(=O)c1ccccc1-2	34.7% (inactive)
CCCCCOc1ccc(C(=O)/C(Br)=C/C(=O)O)cc1	102% (inactive)
Cn1cc(-c2nonc2-c2c[nH]c3ccc(Br)cc23)c2cc(Br)ccc21	66.9% (inactive)
Cn1ccnc1C(=O)C(=O)Nc1ccc(CC(=O)Nc2ccccc2)cc1	103% (inactive)
COCCn1cc(-c2nc(-c3cc4cccnc4n3CCOC)cs2)c2cc(OC)ccc21	78.8% (inactive)
CNc1nc(S(=O)c2ccc(C#N)cc2)nc2ccccc12 (stereo unspecified)	68.9% (inactive)
COC(=O)c1n[nH]c2ccc3nc(-c4cn[nH]c4C(F)(F)F)c4c(c3c12)CCCC4	47.7% (inactive)
COc1ccc(C(=S)N2CCN(c3ccccc3Cl)CC2)cc1OC	100% (inactive)
CCCCC(=O)c1ccco1	87.9% (inactive)
CC1Cc2c(Cl)ncnc2N(C)c2ccc(F)cc21 (stereo unspecified)	106% (inactive)
Cc1ccc(-c2nc3nc(-c4ccc(F)cc4)nc(N4CCNCC4)c3o2)cc1	-48.7% (active)
